Measured pIC50 accompanies every entry in the list below.
Target: Cyclin-dependent kinase 5/CDK5 activator 1 (Homo sapiens)
Assay: Inhibition of human cdk5/p25 by SPA
Quick note: pIC50 values are minus log10 of concentrations in mol/L.

> print(dat)
                           structure.smiles  measured.quantity  value.measured
1  O=C(Nc1nc(Cc2nnc(SCSc3nnc(Cc4csc(NC(=O)c5ccccc5)n4)n3NC(=O)c3ccc(Cl)cc3)n2NC(=O)c2ccc(Cl)cc2)cs1)c1ccccc1              pIC50            6.19
2      CC(=O)Nn1c(S)nnc1Cc1csc(NC(=O)CCl)n1              pIC50            6.16
3  N#CCSc1nnc(Cc2csc(NCCC(=O)O)n2)n1NC(=O)c1ccccc1              pIC50            6.31
4  Nn1c(CSc2nnc(Cc3csc(NC(=O)c4ccccc4)n3)n2NC(=O)c2ccccc2)n[nH]c1=S              pIC50            5.33
5  CC(=O)Nn1c(Cc2csc(NCCC(=O)O)n2)nnc1SCC(=O)NN              pIC50            6.03

Ask | Requested field: pIC50. Item: `N#CCSc1nnc(Cc2csc(NC(=O)CCl)n2)n1NC(=O)c1ccccc1`
Reply | 6.18

Ask | Requested field: pIC50. Item: `CC(=O)NNC(=O)CSc1nnc(Cc2csc(NC(=O)CCl)n2)n1NC(C)=O`
Reply | 6.45

Ask | Requested field: pIC50. Item: `Nn1c(CSc2nnc(Cc3csc(NC(=O)c4ccccc4)n3)n2NC(=O)c2ccc(Cl)cc2)n[nH]c1=S`
Reply | 5.50

Ask | Requested field: pIC50. Item: `CC(=O)Nc1nc(Cc2n[nH]c(=S)n2NC(C)=O)cs1`
Reply | 6.22

Ask | Requested field: pIC50. Item: `CC(=O)Nn1c(Cc2csc(NCCC(=O)O)n2)nnc1SCC(=O)N/N=C/c1ccccc1`
Reply | 6.20

Ask | Requested field: pIC50. Item: `O=C(CSc1nnc(Cc2csc(NC(=O)c3ccccc3)n2)n1NC(=O)c1ccccc1)NNC(=O)c1ccccc1`
Reply | 6.33

Ask | Requested field: pIC50. Item: `CC(=O)Nn1c(Cc2csc(NC(=O)c3ccccc3)n2)nnc1SCC(=O)NN`
Reply | 6.73

Ask | Requested field: pIC50. Item: `COC(=O)CSc1nnc(Cc2csc(NC(=O)CCl)n2)n1NC(=O)c1ccccc1`
Reply | 6.17

---

Biological target: Cyclin-dependent kinase 5/CDK5 activator 1 (Homo sapiens)
Assay: Inhibition of human cdk5/p25 by SPA
measured_quantity: pIC50
Quick note: pIC50 values are minus log10 of concentrations in mol/L.

Consider the following illustrative entries.
> print(dat)
                           structure.smiles  value.measured
1  CC(=O)Nn1c(Cc2csc(NC(=O)CCl)n2)nnc1SCSc1nnc(Cc2csc(NC(=O)CCl)n2)n1NC(C)=O            6.07
2  CC(=O)Nn1c(Cc2csc(NC(=O)CCl)n2)nnc1SCC(=O)NNC(=O)CCl            6.34
3  N#CCSc1nnc(Cc2csc(NC(=O)c3ccccc3)n2)n1NC(=O)c1ccccc1            6.30
4  CC(=O)Nn1c(Cc2csc(NCCC(=O)O)n2)nnc1SCc1nnc(S)n1N            5.19
5  O=C(CCl)NNC(=O)CSc1nnc(Cc2csc(NC(=O)CCl)n2)n1NC(=O)c1ccccc1            6.28
6  O=C(Nc1nc(Cc2nnc(S)n2NC(=O)c2ccc(Cl)cc2)cs1)c1ccccc1            6.73
7  CC(=O)Nc1nc(Cc2nnc(SCC(=O)NNC(=O)c3ccccc3)n2NC(=O)c2ccc(Cl)cc2)cs1            6.27
8  O=C(CCl)Nc1nc(Cc2nnc(S)n2NC(=O)c2ccc(Cl)cc2)cs1            6.19

Now look at this one.
Ask | Requested field: pIC50. Item: `O=C(O)CCNc1nc(Cc2nnc(SCC(=O)NNC(=O)c3ccccc3)n2NC(=O)c2ccccc2)cs1`
Reply | 6.36

---

Molecular target: Cyclin-dependent kinase 5/CDK5 activator 1 (Homo sapiens, UniProt Q00535)
Sequence (Q00535 whole entry): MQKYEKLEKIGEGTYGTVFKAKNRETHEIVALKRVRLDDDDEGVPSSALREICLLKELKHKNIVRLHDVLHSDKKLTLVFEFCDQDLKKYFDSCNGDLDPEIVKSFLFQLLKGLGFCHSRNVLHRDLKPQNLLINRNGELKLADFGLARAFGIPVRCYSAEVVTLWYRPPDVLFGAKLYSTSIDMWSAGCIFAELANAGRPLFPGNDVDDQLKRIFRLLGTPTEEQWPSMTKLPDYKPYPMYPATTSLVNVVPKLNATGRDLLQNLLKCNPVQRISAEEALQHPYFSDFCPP
Sequence (Q15078 whole entry, further chain): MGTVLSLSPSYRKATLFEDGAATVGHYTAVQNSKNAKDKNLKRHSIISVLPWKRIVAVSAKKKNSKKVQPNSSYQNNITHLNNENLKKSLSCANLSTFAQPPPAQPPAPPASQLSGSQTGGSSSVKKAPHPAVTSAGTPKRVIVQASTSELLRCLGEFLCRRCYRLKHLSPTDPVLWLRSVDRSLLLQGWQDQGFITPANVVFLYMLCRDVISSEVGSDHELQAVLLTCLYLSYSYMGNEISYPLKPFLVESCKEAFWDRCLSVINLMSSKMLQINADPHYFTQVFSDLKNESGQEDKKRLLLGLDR
Experiment: Inhibition of human cdk5/p25 by SPA
Rule: measured IC50 below 500 nM gets condition met; anything equal to or greater than 500 nM gets condition not met.

Illustrative cases are given below, each with its answer.
> print(dat)
                           structure.smiles         class.name
1  CC(=O)Nn1c(Cc2csc(NC(=O)CCl)n2)nnc1SCC(=O)NN      condition met
2  CC(=O)Nn1c(Cc2csc(NC(=O)c3ccccc3)n2)nnc1SCC(=O)NNC(=O)c1ccccc1      condition met
3  CC(=O)NNC(=O)CSc1nnc(Cc2csc(NC(C)=O)n2)n1NC(=O)c1ccccc1  condition not met
4  CC(=O)Nc1nc(Cc2n[nH]c(=S)n2NC(=O)c2ccccc2)cs1  condition not met
5  CC(=O)NNC(=O)CSc1nnc(Cc2csc(NC(=O)c3ccccc3)n2)n1NC(=O)c1ccccc1  condition not met
6  Nn1c(CSc2nnc(Cc3csc(NCCC(=O)O)n3)n2NC(=O)c2ccc(Cl)cc2)n[nH]c1=S  condition not met
7  O=C(CSc1nnc(Cc2csc(NC(=O)CCl)n2)n1NC(=O)c1ccc(Cl)cc1)N/N=C/c1ccccc1      condition met

Ask | Lab note: confirm whether the reported IC50 for this compound is below 500 nM, equality not counting. compound: `CC(=O)Nn1c(Cc2csc(NC(=O)c3ccccc3)n2)nnc1SCSc1nnc(Cc2csc(NC(=O)c3ccccc3)n2)n1NC(C)=O`
Reply | condition not met

---

Measured IC50 accompanies every entry in the list below.
Biological target: Cyclin-dependent kinase 5/CDK5 activator 1 (Homo sapiens, UniProt Q00535)
Assay: Inhibition of human cdk5/p25 by SPA

Consider the following illustrative entries.
> print(dat)
                           structure.smiles  value.measured
1  O=C(CCl)Nc1nc(Cc2nnc(SCSc3nnc(Cc4csc(NC(=O)CCl)n4)n3NC(=O)c3ccc(Cl)cc3)n2NC(=O)c2ccc(Cl)cc2)cs1          340 nM
2            Nn1c(S)nnc1Cc1csc(NC(=O)CCl)n1          390 nM
3  CC(=O)Nc1nc(Cc2nnc(SCC(=O)N/N=C/c3ccccc3)n2NC(=O)c2ccccc2)cs1          485 nM

Ask | Requested field: IC50. Item: `Nn1c(S)nnc1Cc1csc(NCCC(=O)O)n1`
Reply | 264 nM

Ask | Requested field: IC50. Item: `NNC(=O)CSc1nnc(Cc2csc(NCCC(=O)O)n2)n1NC(=O)c1ccccc1`
Reply | 465 nM

Ask | Requested field: IC50. Item: `CC(=O)Nc1nc(Cc2nnc(S)n2NC(=O)c2ccc(Cl)cc2)cs1`
Reply | 462 nM
